tested on: Human iSLK.219 cells; conditions: 50% cytotoxic concentration, 48 h, with Dox and NaB
Catalogue of CC50 values

Lab book: CC50 of CC(C)C(=O)c1c(O)cc(O)c(CC2C(C(C)(C)O)CCC2(C)O)c1O (centres unmarked) noted as > 300 µM

Recorded CC50 (molecule CC(C)=CCCC(C)(O)C1Cc2c(O)cc(O)c(C(=O)c3ccccc3)c2O1 (single isomer, unassigned; (-)) [Compound 4b, (−)-japonicol H] ): > 200 µM

// sample CC(C)C(=O)c1c(O)cc(O)c2c1OC(C)(C)C1CCC(C)(O)C1C2 (centres unmarked) , its CC50 was > 300 µM

Entry C=C(C)C1CCC2(C)Oc3c(c(O)cc(O)c3C(=O)C(C)C)CC12 (single isomer, unassigned; (-)) [Compound 1b, (−)-japonicol E] , CC50 reported as 190 µM

Measured CC50, CC(C)=CCCC(C)(O)C1Cc2c(O)cc(O)c(C(=O)C(C)C)c2O1 (single isomer, unassigned; (-)) [Compound 3b, (−)-japonicol G] : 50.1 µM

So, CC(C)C(=O)c1c(O)cc(O)c2c1OC1(C)CCC(C(C)(C)O)C2C1O (centres unmarked) ? Its CC50 was > 500 µM

Lab note: measured CC50 of CC(C)C(=O)c1c(O)cc(O)c2c1OC1(C)CCC(C(C)(C)O)OC1C2 (centres unmarked) was 174 µM

The molecule identified as CC(C)=CCCC1(C)Oc2c(c(O)cc(O)c2C(=O)C(C)C)CC1O (single isomer, unassigned; (-)) [Compound 2b, (−)-japonicol F] registered its CC50 at 150 µM
